experimentNotes: BSK_SAg_Proliferation: Cell Proliferation Assessment in the BioMAP Diversity Plus: SAg Assay (AID 2283095);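 note: relative cell number as total protein by SRB absorbance in sub-confluent culture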
runConditions: primary human HUVEC with PBMC
Experimental: BSK_SAg is a cell-based, multiplexed-readout assay that uses umbilical vein endothelium and peripheral blood mononuclear cells, a human vascular primary cell co-culture, with measurements taken at 24 hours after chemical dosing in a 96-well plate.BSK_SAg_Proliferation is an assay component in the BSK_SAg assay. It measures protein content, a form of viability reporter, as detected with absorbance signals by Sulforhodamine staining technology. […]
The source made the active and inactive calls. Rule for the calls: active = hit-call score of the fitted dose curve at least 0.9, where 1 is the maximum; inactive = score below 0.9.
Return exactly one item of True (active), False (inactive)

Each compound tested received a call. Report the one for COC(=O)c1ccccc1CS(=O)(=O)NC(=O)Nc1nc(OC)cc(OC)n1 .
False

Each compound tested received a call. Report the one for CCCN(CCC)c1c([N+](=O)[O-])cc(C(F)(F)F)cc1[N+](=O)[O-] .
True

Each compound tested received a call. Report the one for COc1nn(CSP(=S)(OC)OC)c(=O)s1 .
False

Each compound tested received a call. Report the one for CCOc1nc(NC)nc(NC(=O)NS(=O)(=O)c2ccccc2C(=O)OC)n1 .
False

Each compound tested received a call. Report the one for CCOCN(C(=O)CCl)c1c(C)cccc1CC .
True

Each compound tested received a call. Report the one for O=C(O)COc1ccc(Cl)cc1Cl .
False

Each compound tested received a call. Report the one for CC1(C)C(C=C(Cl)Cl)C1C(=O)OC(C#N)c1ccc(F)c(Oc2ccccc2)c1 (centres undefined) .
True

Each compound tested received a call. Report the one for CN1CSC(=S)N(C)C1 .
True

Each compound tested received a call. Report the one for N#CN .
False

Each compound tested received a call. Report the one for CCN(CC)C(=O)SCc1ccc(Cl)cc1 .
False

Each compound tested received a call. Report the one for CCC(C)Nc1c([N+](=O)[O-])cc(C(C)(C)C)cc1[N+](=O)[O-] (centres undefined) .
True

Each compound tested received a call. Report the one for OCCOc1ccccc1 .
False

Each compound tested received a call. Report the one for O=C(O)CCCOc1ccc(Cl)cc1Cl .
False

Each compound tested received a call. Report the one for O=C(Nc1ccccc1)Nc1cnns1 .
False

====

Read-out: growth arrest and DNA damage 45 (GADD45G), GADD45G (gene 10912)
experimentNotes: LTEA_HepaRG_GADD45G: Life Technologies and Expression Analysis (LTEA) Assay for growth arrest and DNA damage 45 (GADD45G) using HepaRG (AID 2283499)
runConditions: mRNA level, 48 h; actives raise or lower the signal
Activity calls are given as the source filed them. The calls were made as follows: active = hit-call score of the fitted dose curve at least 0.9, where 1 is the maximum; inactive = score below 0.9.
Return exactly one item of active, inactive

Each molecule tested received a call. Report the one for O=C(O)C(F)(F)C(F)(F)C(F)(F)C(F)(F)C(F)(F)C(F)(F)C(F)(F)F .
inactive

Each molecule tested received a call. Report the one for Cc1[nH]c(=O)n(C(C)(C)C)c(=O)c1Cl .
inactive

Each molecule tested received a call. Report the one for CCC(C)(C)C(=O)OC1=C(c2ccc(Cl)cc2Cl)C(=O)OC12CCCCC2 .
inactive

Each molecule tested received a call. Report the one for O=C(O)CCCOc1ccc(Cl)cc1Cl .
inactive

Each molecule tested received a call. Report the one for O=C(NC(=O)c1c(F)cccc1F)Nc1ccc(OC(F)(F)C(F)OC(F)(F)F)c(Cl)c1 (stereo unspecified) .
inactive

Each molecule tested received a call. Report the one for CCC(C)(NC(=O)c1cc(Cl)c(C)c(Cl)c1)C(=O)CCl (stereo unspecified) .
inactive

Each molecule tested received a call. Report the one for O=S1OCC2C(CO1)C1(Cl)C(Cl)=C(Cl)C2(Cl)C1(Cl)Cl (stereo unspecified) .
active

Each molecule tested received a call. Report the one for CCCN(CCC)c1c([N+](=O)[O-])cc(C(F)(F)F)cc1[N+](=O)[O-] .
inactive

Each molecule tested received a call. Report the one for CC(C)(C)C(O)/C(=C\c1ccc(Cl)cc1Cl)n1cncn1 (stereo unspecified) .
active

Each molecule tested received a call. Report the one for O=C1c2ccccc2C(=O)N1SC(Cl)(Cl)Cl .
inactive

Each molecule tested received a call. Report the one for CCCN(CCOc1c(Cl)cc(Cl)cc1Cl)C(=O)n1ccnc1 .
active

====

systemUnderTest: Retinoic acid receptor alpha (Homo sapiens)
experimentNotes: ATG_DR5_RAR_CIS: Attagene CIS-FACTORIAL HepG2 Assay for human Retinoic Acid Receptor Alpha (RARE), DR5 submotif (AID 2282934)
runConditions: HepG2 Attagene cis-factorial RARE DR5 reporter, mRNA; actives raise or lower the signal
Active and inactive are the calls of the source. How the source made its calls: active means hit-call score of the fitted dose curve at least 0.9, where 1 is the maximum; inactive means score below 0.9.
Return exactly one item of active, inactive

Each compound tested received a call. Report the one for C[C@H]1[C@H](c2ccc(Cl)cc2)SC(=O)N1C(=O)NC1CCCCC1 .
inactive

Each compound tested received a call. Report the one for COc1cc(OC)nc(NC(=O)NS(=O)(=O)c2cc(NC=O)ccc2C(=O)N(C)C)n1 .
inactive

Each compound tested received a call. Report the one for CCC(C)(C)C(=O)OC1=C(c2ccc(Cl)cc2Cl)C(=O)OC12CCCCC2 .
inactive

Each compound tested received a call. Report the one for O=C1c2ccccc2C(=O)N1SC(Cl)(Cl)Cl .
inactive

Each compound tested received a call. Report the one for O=[N+]([O-])c1c(Cl)c(Cl)c(Cl)c(Cl)c1Cl .
active

Each compound tested received a call. Report the one for O=S1OCC2C(CO1)C1(Cl)C(Cl)=C(Cl)C2(Cl)C1(Cl)Cl (centres undefined) .
inactive

Each compound tested received a call. Report the one for Clc1ccccc1-c1nnc(-c2ccccc2Cl)nn1 .
inactive

Each compound tested received a call. Report the one for O=[N+]([O-])/N=C1\NCCN1Cc1ccc(Cl)nc1 .
inactive

Each compound tested received a call. Report the one for CC(C)OC(=O)Nc1cccc(Cl)c1 .
inactive

Each compound tested received a call. Report the one for COP(=S)(OC)Oc1ccc([N+](=O)[O-])cc1 .
inactive

Each compound tested received a call. Report the one for O=C(Nc1ccccc1)Nc1cnns1 .
inactive

Each compound tested received a call. Report the one for Cc1cc(C)nc(NC(=O)NS(=O)(=O)c2ccccc2C(=O)OC2COC2)n1 .
inactive

Each compound tested received a call. Report the one for COP(=S)(OC)Oc1ccc(SC)c(C)c1 .
inactive

Each compound tested received a call. Report the one for N#CN .
inactive

====

systemUnderTest: Estrogen receptor (Homo sapiens) (UniProt P03372)
Sequence (P03372 whole entry, looked up): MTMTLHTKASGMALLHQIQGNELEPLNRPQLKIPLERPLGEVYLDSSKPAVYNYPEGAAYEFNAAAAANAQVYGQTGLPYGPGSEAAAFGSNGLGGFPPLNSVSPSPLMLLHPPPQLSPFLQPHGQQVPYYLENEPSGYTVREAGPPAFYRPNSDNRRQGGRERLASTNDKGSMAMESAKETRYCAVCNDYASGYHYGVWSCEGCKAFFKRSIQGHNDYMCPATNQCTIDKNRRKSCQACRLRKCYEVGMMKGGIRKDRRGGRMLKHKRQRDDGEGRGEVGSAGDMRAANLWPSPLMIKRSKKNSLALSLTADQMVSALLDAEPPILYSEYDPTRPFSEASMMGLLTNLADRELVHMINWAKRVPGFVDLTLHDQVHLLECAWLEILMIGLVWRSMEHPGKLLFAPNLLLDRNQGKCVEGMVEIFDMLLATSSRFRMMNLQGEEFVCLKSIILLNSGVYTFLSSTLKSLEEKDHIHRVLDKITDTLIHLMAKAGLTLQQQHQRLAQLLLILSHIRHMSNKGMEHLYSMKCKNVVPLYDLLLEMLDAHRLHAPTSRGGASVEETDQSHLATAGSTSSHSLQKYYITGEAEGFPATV
experimentNotes: OT_ERa_GFPERaERE_0120: Odyssey Thera (OT) 2-hour HeLa Transcription Induction Assay for Estrogen Receptor (AID 2283382)
Active and inactive are the calls of the source. Rule for the calls: active = hit-call score of the fitted dose curve at least 0.9, where 1 is the maximum; inconclusive = response in the unintended direction; inactive = score below 0.9.
Return exactly one item of active, inactive

Each compound tested received a call. Report the one for O=[N+]([O-])/N=C1\NCCN1Cc1ccc(Cl)nc1 .
inactive

Each compound tested received a call. Report the one for N#Cc1c(Cl)c(Cl)c(Cl)c(C#N)c1Cl .
inactive

Each compound tested received a call. Report the one for COP(=O)(OC)OC=C(Cl)Cl .
inactive

Each compound tested received a call. Report the one for O=[N+]([O-])c1c(Cl)c(Cl)c(Cl)c(Cl)c1Cl .
inactive

Each compound tested received a call. Report the one for C[C@H]1[C@H](c2ccc(Cl)cc2)SC(=O)N1C(=O)NC1CCCCC1 .
inactive

Each compound tested received a call. Report the one for CC(C)(C)C(O)/C(=C\c1ccc(Cl)cc1Cl)n1cncn1 (configuration not stated) .
active

Each compound tested received a call. Report the one for COP(=S)(OC)Oc1ccc([N+](=O)[O-])cc1 .
inactive

Each compound tested received a call. Report the one for CN1CSC(=S)N(C)C1 .
inactive

Each compound tested received a call. Report the one for COP(=S)(OC)Oc1ccc(SC)c(C)c1 .
inactive

Each compound tested received a call. Report the one for CNC(=O)/C=C(\C)OP(=O)(OC)OC .
inactive

Each compound tested received a call. Report the one for O=C1c2ccccc2C(=O)N1SC(Cl)(Cl)Cl .
inactive

Each compound tested received a call. Report the one for CCCN(CCC)c1c([N+](=O)[O-])cc(C(F)(F)F)cc1[N+](=O)[O-] .
inactive

====

Read-out: xenobiotic metabolism (CYP1A1), CYP1A1 (gene 1543)
experimentNotes: CLD_CYP1A1_48hr: CellzDirect (CLD) Gene Expression Assay for xenobiotic metabolism (CYP1A1) at 48 hours (AID 2283705)
Inconclusive results are not listed. The source made the active and inactive calls. Rule for the calls: active = hit-call score of the fitted dose curve at least 0.9, where 1 is the maximum; inconclusive = response in the unintended direction; inactive = score below 0.9.
endpointLabel: outcome

CNC(=O)Oc1ccccc1OC(C)C = inactive
COP(=O)(OC)OC=C(Cl)Cl = inactive
CC[C@H](C)[C@H]1O[C@]2(C=C[C@@H]1C)C[C@@H]1C[C@@H](C/C=C(\C)[C@@H](O[C@H]3C[C@H](OC)[C@@H](O[C@H]4C[C@H](OC)[C@@H](O)[C@H](C)O4)[C@H](C)O3)[C@@H](C)/C=C/C=C3\CO[C@@H]4[C@H](O)C(C)=C[C@@H](C(=O)O1)[C@]34O)O2 (tested in a mixture with another compound) = inactive
